# System: spleen cells
# Protocol: cells
# Assay type: cell-based
# Test Conditions: 24 h, read-out: Minimum effective concentration (interferon inducing activity), CD(SD)IGS rat spleen cells, 24 hours incubation; interferon in supernatant by L929/vesicular stomatitis virus bioassay
Measured Metric: minimal effective concentration (µM)
I only need the number, in µM, no unit after it.

Suppose we examine the molecule CCCCOc1nc(N)c2nc(O)n(CCCc3cccc(CC(=O)OC)c3)c2n1 ; what minimal effective concentration value has been reported?
0.01

Suppose we examine the molecule CCCCOc1nc(N)c2nc(O)n(CCc3cccc(CC(=O)O)c3)c2n1 [compound 9, reference compound] ; what minimal effective concentration value has been reported?
0.3

Suppose we examine the molecule COC(=O)Cc1cccc(Cn2c(O)nc3c(N)nc(OCCCO)nc32)c1 ; what minimal effective concentration value has been reported?
0.03

Suppose we examine the molecule Nc1nc(SCCCCO)nc2c1nc(O)n2Cc1cccc(CC(=O)O)c1 [Comparative example 2, reference compound] ; what minimal effective concentration value has been reported?
1

Suppose we examine the molecule CCCCOc1nc(N)c2nc(O)n(CCCc3cccc(CC(=O)O)c3)c2n1 [compound 10, reference compound] ; what minimal effective concentration value has been reported?
0.1

Suppose we examine the molecule COC(=O)Cc1cccc(Cn2c(O)nc3c(N)nc(SCCCO)nc32)c1 ; what minimal effective concentration value has been reported?
0.01

====

I'd be grateful if you could share measured Residual rate for these entries.
# Protocol: Metabolic stability test using human plasma
# Assay type: in vitro ADME
# Test Conditions: 1 μM test compound, 37° C. for 15 minutes, residual amount per pre-metabolization concentration as 100%

Suppose we examine the compound CCCCOc1nc(N)c2nc(O)n(CCCc3cccc(CC(=O)OC)c3)c2n1 ; what Residual rate value has been reported?
<1%

Suppose we examine the compound COC(=O)Cc1cccc(Cn2c(O)nc3c(N)nc(SCCCCO)nc32)c1 ; what Residual rate value has been reported?
<1%

Suppose we examine the compound COC(=O)Cc1cccc(Cn2c(O)nc3c(N)nc(SCCCO)nc32)c1 ; what Residual rate value has been reported?
<1%
